All figures here come from the supplement of paper PMC4466140.

Reported SPOT peptide array binding signal intensity values for a set of binders
target: ScSho1; experiment: SPOT peptide array binding signal intensity (averaged, normalized) (arbitrary units (background-subtracted, floor 0; scale differs between SH3 domains)); higher = stronger binding of the SH3 domain to the peptide
Measurement label: SPOT peptide array binding signal intensity

Binder	Bound operator	Observed result
PKRRAPPPVPKKPSS	=	1580
NFLRLLIGLPSQNEL	=	1160
SAPDIPPRSPNRNAH	=	13.5
RLSRLLLSLPPESFT	=	1770
RVTRKRPREPKSTND	=	862
GPPPPLPPPLFPSSS	≤	0
VAPPPLPNRQLPNLD	≤	0
HVRRSILALPLGVLL	=	1000
DTFLPPPPPPPSNFE	≤	0
RTRRRPPPPPIPSTQ	=	894
RKNRAPPQRPRFNRE	=	979
PLQSKIPMLPSRRTM	=	586
MPAPPPPPPPPPGAF	=	5.75
